Origin of measurements: ChEMBL document CHEMBL3046499

System: Bombyx mori
Assay: Insecticidal activity against fourth-instar larval stage of Bombyx mori Shunrei x Shongetsu assessed as fourth-instar larval duration time at 100 ppm administered through artificial diet (reference value: 5.1 +/- 0.2 days)
Type: functional

{"COMPOUND": "CN(CCCOC(=O)C(C)(c1ccccc1)c1ccccc1)C1CCCCC1", "READING_UNIT": "days", "Time": 5.6}
{"COMPOUND": "CC(C(=O)OCCCN1CCCCC1)(c1ccccc1)c1ccccc1", "READING_UNIT": "days", "Time": 7.4}
{"COMPOUND": "CCN(CC)CCCOC(=O)C(C)(c1ccccc1)c1ccccc1", "READING_UNIT": "days", "Time": 5.2}
{"COMPOUND": "CCN1CCN(CCCOC(=O)C(C)(c2ccccc2)c2ccccc2)CC1", "READING_UNIT": "days", "Time": 7.2}
{"COMPOUND": "CCN1CCN(CCCCOC(=O)C(C)(c2ccccc2)c2ccccc2)CC1", "READING_UNIT": "days", "Time": 6.1}
{"COMPOUND": "CCN1CCN(CCCCCOC(=O)C(C)(c2ccccc2)c2ccccc2)CC1", "READING_UNIT": "days", "Time": 5.8}
{"COMPOUND": "CN1CCN(CCCOC(=O)C(C)(c2ccccc2)c2ccccc2)CC1", "READING_UNIT": "days", "Time": 7.5}
{"COMPOUND": "CC(C(=O)OCCCN1CCOCC1)(c1ccccc1)c1ccccc1", "READING_UNIT": "days", "Time": 6.1}
{"COMPOUND": "CN1[C@@H]2CC[C@H]1CC(OC(=O)[C@H](CO)c1ccccc1)C2 (stereo partly drawn) [ENDO-ATROPINE]", "READING_UNIT": "days", "Time": 6.3}
{"COMPOUND": "CCN1CCN(CCCCCCOC(=O)C(C)(c2ccccc2)c2ccccc2)CC1", "READING_UNIT": "days", "Time": 4.5}
{"COMPOUND": "CCN1CCN(CCOC(=O)C(C)(c2ccccc2)c2ccccc2)CC1", "READING_UNIT": "days", "Time": 6.2}
{"COMPOUND": "CC(C(=O)OCCCN1CCCC1)(c1ccccc1)c1ccccc1", "READING_UNIT": "days", "Time": 6}
